meta.source: ChEMBL document CHEMBL5233202

# Target Of Assay: Apelin receptor (Rattus norvegicus)
# Sequence (Q9JHG3 whole entry): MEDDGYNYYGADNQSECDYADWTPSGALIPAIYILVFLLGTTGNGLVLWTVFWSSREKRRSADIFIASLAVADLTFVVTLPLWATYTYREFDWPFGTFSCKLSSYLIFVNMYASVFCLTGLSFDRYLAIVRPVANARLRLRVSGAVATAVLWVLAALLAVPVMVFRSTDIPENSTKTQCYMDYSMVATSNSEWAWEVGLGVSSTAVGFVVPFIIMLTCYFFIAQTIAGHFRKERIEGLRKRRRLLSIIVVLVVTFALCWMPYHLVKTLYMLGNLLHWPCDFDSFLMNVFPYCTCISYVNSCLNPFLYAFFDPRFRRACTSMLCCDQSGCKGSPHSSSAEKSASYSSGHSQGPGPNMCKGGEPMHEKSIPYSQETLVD
Non-standard residues stand in square brackets, D forms with d. Residues, ends and D or L forms follow the SMILES beside them. Phe(4-Br) = N[C@@H](Cc1ccc(Br)cc1)C(=O)O; NMeCha = CN[C@@H](CC1CCCCC1)C(=O)O; hArg = N=C(N)NCCCC[C@H](N)C(=O)O; Cha = N[C@@H](CC1CCCCC1)C(=O)O; NMeL = CN[C@@H](CC(C)C)C(=O)O; Nle = CCCC[C@H](N)C(=O)O; Aib = CC(C)(N)C(=O)O
Quantity Kind: pKi
The scale used: pKi is minus the common logarithm of the concentration in molar units.

Molecule | pKi
CCCC[C@H](NC(=O)[C@@H]1CCCN1C(=O)CNC(=O)[C@H](CCCCN)NC(=O)[C@H](Cc1c[nH]cn1)NC(=O)[C@H](CO)NC(=O)[C@H](CC1CCCCC1)NC(=O)[C@H](CCCCNC(=N)N)NC(=O)[C@@H]1CCCN1C(=O)[C@H](CCCNC(=N)N)NC(=O)[C@H](CCC(N)=O)NC(=O)[C@H](CCCNC(=N)N)NC(=O)[C@H](CCCNC(=N)N)NC(=O)[C@H](Cc1ccccc1)NC(=O)[C@@H](N)CCCCN)C(=O)NC(C)(C)C(=O)N[C@@H](Cc1ccc(Br)cc1)C(=O)O (H-KFRRQRP[hArg][Cha]SHKGP[Nle][Aib][Phe(4-Br)]-OH) | 8.96
CCCC[C@H](NC(=O)[C@@H]1CCCN1C(=O)CNC(=O)[C@H](CCCCN)NC(=O)[C@H](Cc1c[nH]cn1)NC(=O)[C@H](CO)NC(=O)[C@H](CC(C)C)N(C)C(=O)[C@H](CCCCNC(=N)N)NC(=O)[C@@H]1CCCN1C(=O)[C@H](CCCNC(=N)N)NC(=O)[C@H](CCC(N)=O)NC(=O)[C@H](CCCNC(=N)N)NC(=O)[C@H](CCCNC(=N)N)NC(=O)[C@H](Cc1ccccc1)NC(=O)[C@@H](N)CCCCN)C(=O)NC(C)(C)C(=O)N[C@@H](Cc1ccc(Br)cc1)C(=O)O (H-KFRRQRP[hArg][NMeL]SHKGP[Nle][Aib][Phe(4-Br)]-OH) | 8.85
CCCC[C@H](NC(=O)[C@@H]1CCCN1C(=O)CNC(=O)[C@H](CCCCN)NC(=O)[C@H](Cc1c[nH]cn1)NC(=O)[C@H](CO)NC(=O)[C@H](CC1CCCCC1)NC(=O)[C@H](CCCNC(=N)N)NC(=O)[C@@H]1CCCN1C(=O)[C@H](CCCNC(=N)N)NC(=O)[C@H](CCC(N)=O)NC(=O)[C@H](CCCNC(=N)N)NC(=O)[C@H](CCCNC(=N)N)NC(=O)[C@H](Cc1ccccc1)NC(=O)[C@@H](N)CCCCN)C(=O)NC(C)(C)C(=O)N[C@@H](Cc1ccc(Br)cc1)C(=O)O (H-KFRRQRPR[Cha]SHKGP[Nle][Aib][Phe(4-Br)]-OH) | 8.80

// below: pKi requested for another molecule
Query for Apelin receptor (Rattus norvegicus): what pKi does the record show for CCCC[C@H](NC(=O)[C@@H]1CCCN1C(=O)CNC(=O)[C@H](CCCCN)NC(=O)[C@H](Cc1c[nH]cn1)NC(=O)[C@H](CO)NC(=O)[C@H](CC1CCCCC1)N(C)C(=O)[C@H](CCCCNC(=N)N)NC(=O)[C@@H]1CCCN1C(=O)[C@H](CCCNC(=N)N)NC(=O)[C@H](CCC(N)=O)NC(=O)[C@H](CCCNC(=N)N)NC(=O)[C@H](CCCNC(=N)N)NC(=O)[C@H](Cc1ccccc1)NC(=O)[C@@H](N)CCCCN)C(=O)NC(C)(C)C(=O)N[C@@H](Cc1ccc(Br)cc1)C(=O)O (H-KFRRQRP[hArg][NMeCha]SHKGP[Nle][Aib][Phe(4-Br)]-OH) ? 9.19

---

# Target Of Assay: Apelin receptor (Homo sapiens)
# Sequence (P35414 whole entry): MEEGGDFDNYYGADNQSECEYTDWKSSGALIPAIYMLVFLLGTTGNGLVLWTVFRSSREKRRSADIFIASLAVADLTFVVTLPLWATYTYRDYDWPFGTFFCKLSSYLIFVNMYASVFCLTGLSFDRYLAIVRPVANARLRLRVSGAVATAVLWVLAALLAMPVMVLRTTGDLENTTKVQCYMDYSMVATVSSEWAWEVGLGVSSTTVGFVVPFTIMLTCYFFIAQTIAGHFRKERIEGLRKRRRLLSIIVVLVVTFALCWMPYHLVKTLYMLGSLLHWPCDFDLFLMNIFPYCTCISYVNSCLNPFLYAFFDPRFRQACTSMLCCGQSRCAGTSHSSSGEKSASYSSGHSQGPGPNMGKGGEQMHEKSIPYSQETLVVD
# Test Summary: Activation of recombinant human APJ receptor expressed in rat Chem-5 cells assessed as increase in Ca2+ mobilization by FLIPR Calcium 6-QF fluorescent dye based assay
Non-standard residues stand in square brackets, D forms with d. Residues, ends and D or L forms follow the SMILES beside them. Phe(4-Br) = N[C@@H](Cc1ccc(Br)cc1)C(=O)O; hArg = N=C(N)NCCCC[C@H](N)C(=O)O; Cha = N[C@@H](CC1CCCCC1)C(=O)O; Nle = CCCC[C@H](N)C(=O)O; Aib = CC(C)(N)C(=O)O
Quantity Kind: pEC50
In plain terms, pEC50 is the concentration in mol/L turned into minus its base-10 logarithm.

Molecule | Quantity Kind | Measured Result
CCCC[C@H](NC(=O)[C@@H]1CCCN1C(=O)CNC(=O)[C@H](CCCCN)NC(=O)[C@H](Cc1c[nH]cn1)NC(=O)[C@H](CO)NC(=O)[C@H](CC1CCCCC1)NC(=O)[C@H](CCCCNC(=N)N)NC(=O)[C@@H]1CCCN1C(=O)[C@H](CCCNC(=N)N)NC(=O)[C@H](CCC(N)=O)NC(=O)[C@H](CCCNC(=N)N)NC(=O)[C@H](CCCNC(=N)N)NC(=O)[C@H](Cc1ccccc1)NC(=O)[C@@H](N)CCCCN)C(=O)NC(C)(C)C(=O)N[C@@H](Cc1ccc(Br)cc1)C(=O)O (H-KFRRQRP[hArg][Cha]SHKGP[Nle][Aib][Phe(4-Br)]-OH) | pEC50 | 8.36
CCCC[C@H](NC(=O)[C@@H]1CCCN1C(=O)CNC(=O)[C@H](CCCCN)NC(=O)[C@H](Cc1c[nH]cn1)NC(=O)[C@H](CO)NC(=O)[C@H](CC(C)C)N(C)C(=O)[C@H](CCCNC(=N)N)NC(=O)[C@@H]1CCCN1C(=O)[C@H](CCCNC(=N)N)NC(=O)[C@@H]1CCC(=O)N1)C(=O)NC(C)(C)C(=O)N[C@@H](Cc1ccc(Br)cc1)C(=O)O | pEC50 | 8.17

Could you now consider this next molecule?
State the recorded pEC50 for this entry: CCCC[C@H](NC(=O)[C@@H]1CCCN1C(=O)CNC(=O)[C@H](CCCCN)NC(=O)[C@H](Cc1c[nH]cn1)NC(=O)[C@H](CO)NC(=O)[C@H](CC(C)C)NC(=O)[C@H](CCCNC(=N)N)NC(=O)[C@@H]1CCCN1C(=O)[C@H](CCCNC(=N)N)NC(=O)[C@H](CCC(N)=O)NC(=O)[C@H](CCCNC(=N)N)NC(=O)[C@H](CCCNC(=N)N)NC(=O)[C@H](Cc1ccccc1)NC(=O)[C@@H](N)CCCCN)C(=O)NC(C)(C)C(=O)N[C@@H](Cc1ccc(Br)cc1)C(=O)O (H-KFRRQRPRLSHKGP[Nle][Aib][Phe(4-Br)]-OH) 8.37

---

# Target Of Assay: Apelin receptor (Homo sapiens)
# Sequence (P35414 whole entry): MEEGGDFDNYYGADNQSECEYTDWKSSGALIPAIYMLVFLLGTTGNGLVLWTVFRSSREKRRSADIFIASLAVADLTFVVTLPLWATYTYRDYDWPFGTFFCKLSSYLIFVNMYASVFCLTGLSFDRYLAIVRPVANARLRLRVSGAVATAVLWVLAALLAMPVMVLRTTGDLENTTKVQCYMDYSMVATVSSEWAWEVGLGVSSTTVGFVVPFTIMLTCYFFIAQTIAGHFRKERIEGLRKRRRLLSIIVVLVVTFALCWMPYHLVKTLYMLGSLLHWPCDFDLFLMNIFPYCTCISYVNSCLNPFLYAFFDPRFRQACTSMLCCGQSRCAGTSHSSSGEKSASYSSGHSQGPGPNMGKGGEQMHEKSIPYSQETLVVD
# Test Summary: Activation of recombinant human APJ receptor expressed in rat Chem-5 cells assessed as increase in Ca2+ mobilization by FLIPR Calcium 6-QF fluorescent dye based assay
Non-standard residues stand in square brackets, D forms with d. Residues, ends and D or L forms follow the SMILES beside them. Phe(4-Br) = N[C@@H](Cc1ccc(Br)cc1)C(=O)O; NMeCha = CN[C@@H](CC1CCCCC1)C(=O)O; hArg = N=C(N)NCCCC[C@H](N)C(=O)O; NMeL = CN[C@@H](CC(C)C)C(=O)O; Nle = CCCC[C@H](N)C(=O)O; Aib = CC(C)(N)C(=O)O
Quantity Kind: EC50 (nM)
Write the number in nM without appending the unit.

Compound | EC50, nM
CCCC[C@H](NC(=O)[C@@H]1CCCN1C(=O)CNC(=O)[C@H](CCCCN)NC(=O)[C@H](Cc1c[nH]cn1)NC(=O)[C@H](CO)NC(=O)[C@H](CC1CCCCC1)N(C)C(=O)[C@H](CCCNC(=N)N)NC(=O)[C@@H]1CCCN1C(=O)[C@H](CCCNC(=N)N)NC(=O)[C@H](CCC(N)=O)NC(=O)[C@H](CCCNC(=N)N)NC(=O)[C@H](CCCNC(=N)N)NC(=O)[C@H](Cc1ccccc1)NC(=O)[C@@H](N)CCCCN)C(=O)NC(C)(C)C(=O)N[C@@H](Cc1ccc(Br)cc1)C(=O)O (H-KFRRQRPR[NMeCha]SHKGP[Nle][Aib][Phe(4-Br)]-OH) | 16.2

Now consider the entry below.
EC50 lookup needed for CCCC[C@H](NC(=O)[C@@H]1CCCN1C(=O)CNC(=O)[C@H](CCCCN)NC(=O)[C@H](Cc1c[nH]cn1)NC(=O)[C@H](CO)NC(=O)[C@H](CC(C)C)N(C)C(=O)[C@H](CCCCNC(=N)N)NC(=O)[C@@H]1CCCN1C(=O)[C@H](CCCNC(=N)N)NC(=O)[C@H](CCC(N)=O)NC(=O)[C@H](CCCNC(=N)N)NC(=O)[C@H](CCCNC(=N)N)NC(=O)[C@H](Cc1ccccc1)NC(=O)[C@@H](N)CCCCN)C(=O)NC(C)(C)C(=O)N[C@@H](Cc1ccc(Br)cc1)C(=O)O (H-KFRRQRP[hArg][NMeL]SHKGP[Nle][Aib][Phe(4-Br)]-OH) , thanks. 275
